# key: entry, value: solubility
- ASSAY_NOTES: Water solubility by quantitative NMR
- Assay type: physicochemical
- APPLIED_CONDITIONS: water (D2O), water, thermodynamic from solid; Table 2; at 20°C

CCOc1cc2c3[n+](c1)CCc1cc(OCC)c[n+](c1-3)CC2.Cl | > 1500 mM
[Cl-].[Cl-].c1cc2c3[n+](c1)CCCc1ccc[n+](c1-3)CCC2 | > 1500 mM
Cc1cc2c3[n+](c1)CCc1cc(C)c[n+](c1-3)CC2.[Cl-].[Cl-] | ~1000 mM

Exam item: State the recorded solubility for this entry: [Cl-].[Cl-].c1cc2c3[n+](c1)CCc1ccc[n+](c1-3)CC2
Marked response: > 1500 mM
